Just for reference, PubChem BioAssay (NCATS) is where these values come from.

Assay: qHTS Assay for Lipid Storage Modulators (AID 1519); also: % is scaled to controls: 0 for no effect and ±100 for the full control effect
Conditions: Drosophila S3 cells, BODIPY lipid droplet/cell ratio, laser cytometry; at 25.7 µM (top of the series); cells loaded with oleic acid
Records with an inconclusive call do not appear.
The following compounds are shown together with reported activity change, negative = inhibition values.

{"Molecular String": "CN(C)CCCOc1nn(Cc2ccccc2)c2ccccc12", "Measure Unit": "%", "activity change, negative = inhibition": -3.69}
{"Molecular String": "CCCCOc1cc(C(=O)NCCN(CC)CC)c2ccccc2n1", "Measure Unit": "%", "activity change, negative = inhibition": -1.17}
{"Molecular String": "Oc1c(I)cc(Cl)c2cccnc12", "Measure Unit": "%", "activity change, negative = inhibition": -3.26}
{"Molecular String": "CCCCOc1ccc(OCCCN2CCOCC2)cc1", "Measure Unit": "%", "activity change, negative = inhibition": -0.243}
{"Molecular String": "C[C@H](O)C(=O)Nc1c(I)c(C(=O)NC(CO)CO)c(I)c(C(=O)NC(CO)CO)c1I", "Measure Unit": "%", "activity change, negative = inhibition": -3.5}
{"Molecular String": "CC(C)(C(=O)c1cccnc1)c1cccnc1", "Measure Unit": "%", "activity change, negative = inhibition": -6.04}
{"Molecular String": "C[C@@H](CN(C)C)CN1c2ccccc2Sc2ccccc21", "Measure Unit": "%", "activity change, negative = inhibition": -1.55}
{"Molecular String": "CNCCC=C1c2ccccc2CCc2ccccc21", "Measure Unit": "%", "activity change, negative = inhibition": -2}
{"Molecular String": "COc1ccc(CCN2CCC(Nc3nc4ccccc4n3Cc3ccc(F)cc3)CC2)cc1", "Measure Unit": "%", "activity change, negative = inhibition": -7.48}
{"Molecular String": "CCn1cc(C(=O)O)c(=O)c2cnc(N3CCCC3)nc21", "Measure Unit": "%", "activity change, negative = inhibition": -3.05}
{"Molecular String": "CCOC(=O)n1ccn(C)c1=S", "Measure Unit": "%", "activity change, negative = inhibition": -1.84}
{"Molecular String": "C1CCc2nnnn2CC1", "Measure Unit": "%", "activity change, negative = inhibition": 0.501}
{"Molecular String": "Cc1c(N(C)CS(=O)(=O)O)c(=O)n(-c2ccccc2)n1C", "Measure Unit": "%", "activity change, negative = inhibition": 0.216}
{"Molecular String": "C[N+]1(CCCCC[N+]2(C)CCCC2)CCCC1", "Measure Unit": "%", "activity change, negative = inhibition": -1.41}
{"Molecular String": "CC(=O)N(O)CCCCCNC(=O)CCC(=O)N(O)CCCCCNC(=O)CCC(=O)N(O)CCCCCN", "Measure Unit": "%", "activity change, negative = inhibition": -1.65}
{"Molecular String": "O=C1c2ccccc2C(=O)C1c1ccccc1", "Measure Unit": "%", "activity change, negative = inhibition": -0.708}
{"Molecular String": "NCCCC[C@H](N[C@@H](CCc1ccccc1)C(=O)O)C(=O)N1CCC[C@H]1C(=O)O", "Measure Unit": "%", "activity change, negative = inhibition": 0.781}
{"Molecular String": "Cc1ccnc(NS(=O)(=O)c2ccc(N)cc2)n1", "Measure Unit": "%", "activity change, negative = inhibition": 2.4}
{"Molecular String": "COc1c2occc2c(OC)c2c(=O)cc(C)oc12", "Measure Unit": "%", "activity change, negative = inhibition": 2.26}
{"Molecular String": "CC(=O)Oc1ccc(C(c2ccc(OC(C)=O)cc2)c2ccccn2)cc1", "Measure Unit": "%", "activity change, negative = inhibition": -1.79}
{"Molecular String": "CCN1CCC[C@H]1CNC(=O)c1c(OC)ccc(Br)c1OC", "Measure Unit": "%", "activity change, negative = inhibition": -6.61}
{"Molecular String": "CCN(CC)C(=O)N1CCN(C)CC1", "Measure Unit": "%", "activity change, negative = inhibition": -0.935}
{"Molecular String": "CC(O)(P(=O)(O)O)P(=O)(O)O", "Measure Unit": "%", "activity change, negative = inhibition": 2.54}

* * *

Tested on: HeLa
Experiment: Primary qHTS to identify gynecologic anti-cancer compounds using libraries of approved drugs and bioactive compounds (AID 1345084); also: % is scaled to controls: 0 for no effect and ±100 for the full control effect; nearly all actives have a fitted effect of over 55% in size
Details: Gynecologic cancer cell panel viability, ATPlite luminescence, 48 h; series mostly up to 57.5 µM
Results filed as inconclusive are left out. Activity calls are given as the source filed them. The call rests on the fitted dose curve; in most records, active means well fitted cell-killing curve with a large enough effect; inconclusive means small, poorly fitted or top-dose-only effect, or effect the other way; inactive means flat fitted curve, though single readings scatter.
Outcome Measure: outcome

{"Compound": "CN(C)C(=S)SC(=S)N(C)C", "Outcome Measure": "outcome", "Recorded Result": "inactive"}
{"Compound": "O=C(Nc1ccc(Oc2ccc(Cl)cc2)c(Cl)c1)c1cc(I)cc(I)c1O", "Outcome Measure": "outcome", "Recorded Result": "inactive"}
{"Compound": "C[C@H](CCC(=O)O)[C@H]1CC[C@H]2[C@@H]3C(=O)C[C@@H]4CC(=O)CC[C@]4(C)[C@H]3CC(=O)[C@]12C", "Outcome Measure": "outcome", "Recorded Result": "inactive"}
{"Compound": "COC(=O)CCc1ccc(OCC(O)CNC(C)C)cc1 (stereo not given)", "Outcome Measure": "outcome", "Recorded Result": "inactive"}
{"Compound": "CCCCCCCCCCCCCCNCCO", "Outcome Measure": "outcome", "Recorded Result": "inactive"}
{"Compound": "Cc1ncc(CSSCc2cnc(C)c(O)c2CO)c(CO)c1O", "Outcome Measure": "outcome", "Recorded Result": "inactive"}
{"Compound": "CC(=O)OCC(=O)[C@@]1(O)CC[C@H]2[C@@H]3CCC4=CC(=O)C=C[C@]4(C)[C@H]3[C@@H](O)C[C@@]21C", "Outcome Measure": "outcome", "Recorded Result": "inactive"}
{"Compound": "CCCSS/C(CCO)=C(\\C)N(C=O)Cc1cnc(C)nc1N", "Outcome Measure": "outcome", "Recorded Result": "inactive"}
{"Compound": "CCCOC(C(=O)OC1CCN(C)CC1)(c1ccccc1)c1ccccc1", "Outcome Measure": "outcome", "Recorded Result": "inactive"}
{"Compound": "CCN(CC)C(=O)/C(C#N)=C/c1cc(O)c(O)c([N+](=O)[O-])c1", "Outcome Measure": "outcome", "Recorded Result": "inactive"}

* * *

Test system: Zika virus NS2B-NS3 protease
Assay: Primary screen GU AMC qHTS for Zika virus inhibitors (AID 1347154); also: nearly all actives have a fitted effect of over 70% in size
Conditions: Zika NS2B-NS3 unlinked protease, AMC fluorogenic substrate; series mostly up to 54.1 µM
Results filed as inconclusive are left out. The source made the active and inactive calls. Calls follow the shape of the dose curve; as a rule, active = well fitted inhibition curve with a large enough effect; inconclusive = small, poorly fitted or top-dose-only effect; inactive = flat fitted curve, though single readings scatter.
Possible outcomes: active, inactive

{"Compound": "CN1CCCC(CC2c3ccccc3Sc3ccccc32)C1 (stereo not drawn)", "Answer Label": "inactive"}
{"Compound": "Clc1ccc2c(c1)CCc1cccnc1C2=C1CCNCC1", "Answer Label": "inactive"}
{"Compound": "CCN1CCC[C@H]1CNC(=O)c1c(OC)ccc(Br)c1OC", "Answer Label": "inactive"}
{"Compound": "O=C(Nc1ccc(Cl)c(Cl)c1)C1CC1", "Answer Label": "inactive"}
{"Compound": "CN=C(NC#N)Nc1ccc(C2=NNC(=O)CC2C)cc1 (stereo not drawn)", "Answer Label": "inactive"}
{"Compound": "Cc1cc(N)c2cc(NC(=O)Nc3ccc4nc(C)cc(N)c4c3)ccc2n1", "Answer Label": "active"}
{"Compound": "CCOC(=O)c1cccc(N)c1", "Answer Label": "inactive"}
{"Compound": "CC(C)n1nc(-c2cc3cc(O)ccc3[nH]2)c2c(N)ncnc21", "Answer Label": "inactive"}
{"Compound": "Cc1c(N(C)CS(=O)(=O)O)c(=O)n(-c2ccccc2)n1C", "Answer Label": "inactive"}
{"Compound": "C/C=C/c1ccc(OC)cc1", "Answer Label": "inactive"}
{"Compound": "COc1cc2c(cc1OC)C(C(C(=O)N(CCc1ccc(OC)c(OC)c1OC)CCc1ccc(OC)c(OC)c1OC)c1ccccc1)=NCC2 (stereo not drawn)", "Answer Label": "inactive"}
{"Compound": "CCCN1CCCC[C@H]1C(=O)Nc1c(C)cccc1C", "Answer Label": "inactive"}
{"Compound": "CC(O)C(=O)O (stereo not drawn)", "Answer Label": "inactive"}
{"Compound": "CCCCCCCCCCOCC(O)CN (stereo not drawn)", "Answer Label": "inactive"}
{"Compound": "CN(C(=O)CN(CCO)CC(=O)N(C)C(C)(C)Cc1ccccc1)C(C)(C)Cc1ccccc1", "Answer Label": "inactive"}
{"Compound": "CC(=O)O[C@]1(C(C)=O)CC[C@H]2[C@@H]3C[C@H](C)C4=CC(=O)CC[C@]4(C)[C@H]3CC[C@@]21C", "Answer Label": "inactive"}
{"Compound": "C[C@]12CCC(=O)C=C1[C@@H]1C[C@@H]1[C@H]1[C@@H]3[C@@H]4C[C@@H]4[C@@]4(CCC(=O)O4)[C@@]3(C)CC[C@@H]12", "Answer Label": "inactive"}
{"Compound": "CC(=O)N(O)CCCCCNC(=O)CCC(=O)N(O)CCCCCNC(=O)CCC(=O)N(O)CCCCCN", "Answer Label": "inactive"}
{"Compound": "COC(=O)CCc1ccc(OCC(O)CNC(C)C)cc1 (stereo not drawn)", "Answer Label": "inactive"}
{"Compound": "CN(C)C(=S)SC(=S)N(C)C", "Answer Label": "inactive"}
{"Compound": "COc1cc(-c2ccc(=O)[nH]n2)ccc1OC(F)F", "Answer Label": "inactive"}
{"Compound": "CCOC(=O)OC(C)OC1=C(C(=O)Nc2ccccn2)N(C)S(=O)(=O)c2ccccc21 (stereo not drawn)", "Answer Label": "inactive"}
{"Compound": "C=C1C[C@H]2[C@@H]3C=C(C)C4=CC(=O)CC[C@]4(C)[C@H]3CC[C@]2(C)[C@@]1(OC(C)=O)C(C)=O", "Answer Label": "inactive"}
